Each entry below lists one item and its recorded pIC50 value.
# Tested on: CEM cells HIV-1 protection, formazan growth assay
# Measurement notes: NCI AIDS Antiviral Assay
# Assay setup: measured here: growth of uninfected CEM cells
pIC50: −log10 of the molar value.

{"columns": ["Compound", "Experimental target", "Censoring sign", "pIC50"],
 "data": [
  ["Cc1ccc(S(=O)(=O)n2nc(Oc3ccc(Cl)c(Cl)c3)nc2N)cc1", "CEM cells HIV-1 protection, formazan growth assay", "<", 5.44],
  ["CCCCCCCCCCCCCCCC=C(c1cc(Br)cc(C(=O)OC)c1OC)c1cc(Br)cc(C(=O)OC)c1OC", "CEM cells HIV-1 protection, formazan growth assay", "<", 4.59],
  ["COc1cccc(/C=C/C(=O)c2ccccc2)c1", "CEM cells HIV-1 protection, formazan growth assay", "=", 4.96],
  ["CCCCCCCCCCCCCCCC(=O)Nc1ccn(C2CCC(COP(=O)(O)OCC3OC(n4ccc(NC(=O)CCCCCCCCCCCCCCC)nc4=O)CC3OP(=O)(O)OCC3OC(n4ccc(NC(=O)CCCCCCCCCCCCCCC)nc4=O)CS3)O2)c(=O)n1 (centres undefined)", "CEM cells HIV-1 protection, formazan growth assay", "=", 4.08]
]}

----------
Each entry below lists one item and its recorded IC50 value.
# Test system: CEM cells HIV-1 protection, formazan growth assay
# Measurement notes: NCI AIDS Antiviral Assay
# Assay setup: measured here: growth of uninfected CEM cells
Readout name: IC50 (µM)

{"columns": ["Compound", "Experimental target", "Unit abbrev", "Censoring sign", "Quantitative result"],
 "data": [
  ["CCOC(=O)/C(C#N)=C(O)/C(=C/c1ccccc1Cl)NC(=O)c1ccccc1", "CEM cells HIV-1 protection, formazan growth assay", "µM", ">", 631],
  ["COC(=O)C1Cc2c([nH]c3ccccc23)-c2[nH]c3ccccc3c2CC(NC(C)=O)C(=O)NCC(=O)N1 (centres undefined)", "CEM cells HIV-1 protection, formazan growth assay", "µM", ">", 200],
  ["Oc1ccccc1C=Nc1ccc(Oc2ccc(Cl)cc2)c(Cl)c1", "CEM cells HIV-1 protection, formazan growth assay", "µM", "=", 13.2],
  ["C=CCCC(OCOCCOC)c1cc(C)c(O[Si](C)(C)C(C)(C)C)c(C)c1 (centres undefined)", "CEM cells HIV-1 protection, formazan growth assay", "µM", "=", 29.5]
]}

----------
# System: CEM cells HIV-1 protection, formazan growth assay
# Measurement notes: NCI AIDS Antiviral Assay
# Assay setup: measured here: growth of uninfected CEM cells
Each entry below lists one item and its recorded IC50 value.
Readout name: IC50

{"columns": ["Molecule", "Experimental target", "Result"],
 "data": [
  ["O=C(O)CCC(NC(=O)c1ccc(CNc2nc3ccccc3nc2C(=O)O)cc1)C(=O)O (stereo not drawn)", "CEM cells HIV-1 protection, formazan growth assay", "> 200 µM"],
  ["Nc1ccc(S(=O)(=O)O)cc1[N+](=O)[O-]", "CEM cells HIV-1 protection, formazan growth assay", "> 1150 µM"],
  ["COc1cc(Nc2cnc3cc(C(F)(F)F)ccc3n2)cc(OC)c1OC", "CEM cells HIV-1 protection, formazan growth assay", "> 50.1 µM"]
]}

----------
Each entry below lists one item and its recorded pIC50 value.
# System: CEM cells HIV-1 protection, formazan growth assay
# Measurement notes: NCI AIDS Antiviral Assay
# Assay setup: measured here: growth of uninfected CEM cells
pIC50: −log10 of the molar value.
Readout name: pIC50

{"columns": ["Compound", "Result"],
 "data": [
  ["O=c1onc2c3ccccc3ncn12", "< 3.70"],
  ["CC(C)=C/C(CC(O)(C(F)(F)F)C(F)(F)F)=N\\O", "< 3.70"],
  ["N#CC1(OC2CCCCO2)Cc2ccccc2C1 (stereo not drawn)", "< 3.70"]
]}

----------
Each entry below lists one item and its recorded IC50 value.
# System: CEM cells HIV-1 protection, formazan growth assay
# Measurement notes: NCI AIDS Antiviral Assay
# Assay setup: measured here: growth of uninfected CEM cells
Readout name: IC50

{"columns": ["Molecule", "Readout name", "Result"],
 "data": [
  ["Brc1ccc(C[N+]23CCN(CC2)CC3)cc1", "IC50", "> 692 µM"],
  ["O=C(Cc1ccccc1)NC(=O)Nc1ccccc1", "IC50", "> 20.4 µM"],
  ["Cc1cccc(C=C2C(=O)NC(=O)NC2=O)c1", "IC50", "> 407 µM"],
  ["COC(OC(CO)C(O)S(=O)(=O)O)C(O)S(=O)(=O)O (stereo unspecified)", "IC50", "32.4 µM"],
  ["CN(C)c1ccc(/C=C(\\C#N)c2ccccc2Cl)cc1", "IC50", "4.47 µM"],
  ["COc1ccc(/C=C(/C(=O)c2ccccc2)c2ccccc2)cc1", "IC50", "> 8.71 µM"],
  ["COC(=O)C1[C@@H](C(=O)OC)C12C=Cc1ccccc1C=C2 (stereo partly specified)", "IC50", "> 200 µM"],
  ["COc1cccc2c1[C@H]1OC(=O)NC1CCCCC2 (stereo partly specified)", "IC50", "> 200 µM"],
  ["N#CC(/C=C/c1ccccc1)Nc1ccccc1CO (stereo unspecified)", "IC50", "> 27.5 µM"],
  ["Cc1cccc(C(C)C)c1NC(=O)CC1C(=O)Nc2ccccc2S1(=O)=O (stereo unspecified)", "IC50", "> 7.08 µM"],
  ["C=C(CN(C)C)C(=O)c1ccccc1[N+](=O)[O-]", "IC50", "10.7 µM"]
]}

----------
# Test system: CEM cells HIV-1 protection, formazan growth assay
# Measurement notes: NCI AIDS Antiviral Assay
pEC50: −log10 of the molar value. Where a SMILES comes first, the peptide text is derived from it. The star is where a group is joined. Boc = CC(C)(C)OC(=O)*
Each entry below lists one item and its recorded pEC50 value.

{"columns": ["Compound", "Experimental target", "pEC50"],
 "data": [
  ["c1ccc(-c2nc3ccccc3nc2SCc2cccnc2)cc1", "CEM cells HIV-1 protection, formazan growth assay", "< 5.10"],
  ["CN(C)C(=O)OC1C(=O)N(C)c2ccc(Cl)cc2C2(c3ccccc3)N1C2(Cl)Cl (stereo not given)", "CEM cells HIV-1 protection, formazan growth assay", "< 3.70"],
  ["CCC(C)c1c(NC(C)=O)o[nH]c1=O (stereo not given)", "CEM cells HIV-1 protection, formazan growth assay", "< 3.70"],
  ["CCOC(=O)c1c2ccccc2n2c(=O)n(C)nnc12", "CEM cells HIV-1 protection, formazan growth assay", "< 3.70"],
  ["O=c1[nH]c(=O)n(C2OC(CO)C(O)C2O)c2ncncc12 (stereo not given)", "CEM cells HIV-1 protection, formazan growth assay", "< 3.70"],
  ["CC(=O)OCC1OC(OC2C(COC(C)=O)OC(Sc3ccccc3C)C(OC(C)=O)C2OC(C)=O)C(OC(C)=O)C(OC(C)=O)C1OC(C)=O (stereo not given)", "CEM cells HIV-1 protection, formazan growth assay", "< 4.60"],
  ["Cc1nc2c(ncn2CCO)c(=O)[nH]1", "CEM cells HIV-1 protection, formazan growth assay", "< 3.70"],
  ["CON1C(=O)C(c2cccs2)=C2SCC=C21", "CEM cells HIV-1 protection, formazan growth assay", "< 3.77"],
  ["Cn1cnc(/C=C/C#N)c1", "CEM cells HIV-1 protection, formazan growth assay", "< 3.70"],
  ["N#CC(C#N)=CN1C(=O)CNC1=S", "CEM cells HIV-1 protection, formazan growth assay", "< 3.70"],
  ["CCc1nc2ccc(C(F)(F)F)cc2[nH]c1=O", "CEM cells HIV-1 protection, formazan growth assay", "< 3.70"],
  ["Cc1cn(C2C/C(=N\\O)C(CO)O2)c(=O)[nH]c1=O (stereo not given)", "CEM cells HIV-1 protection, formazan growth assay", 4.90],
  ["CN1C(c2ccccc2)CC(=NOCc2ccccc2)CC1c1ccccc1 (stereo not given)", "CEM cells HIV-1 protection, formazan growth assay", "< 3.70"],
  ["O=c1cc(NNc2cccc(F)c2)[nH]c(=O)[nH]1", "CEM cells HIV-1 protection, formazan growth assay", "< 3.70"],
  ["O=C(N[C@@H](CSSC[C@H](NC(=O)OCc1ccccc1)C(=O)O)C(=O)O)OCc1ccccc1", "CEM cells HIV-1 protection, formazan growth assay", "< 3.70"],
  ["CC(=O)NCCCCN(CCCNC(C)=O)C(=O)CNS(=O)(=O)c1cccc2c(N(C)C)cccc12", "CEM cells HIV-1 protection, formazan growth assay", "< 3.70"],
  ["CCCCCCN=Cc1c(O)c(O)c(C(C)C)c2cc(C)c(-c3c(C)cc4c(C(C)C)c(O)c(O)c(C=NCCCCCC)c4c3O)c(O)c12", "CEM cells HIV-1 protection, formazan growth assay", "< 3.70"],
  ["COC(=O)C(=O)C(C(=O)Nc1cccc(C)c1C)C1Sc2ccccc2NC1=O (stereo not given)", "CEM cells HIV-1 protection, formazan growth assay", "< 4.76"],
  ["N#CC(NCc1cccc(CNC(C#N)c2ccccc2)c1)c1ccccc1 (stereo not given)", "CEM cells HIV-1 protection, formazan growth assay", "< 3.70"],
  ["CCn1c(=O)ccc2ccc(N(CCO)CCO)nc21", "CEM cells HIV-1 protection, formazan growth assay", "< 3.70"],
  ["O=C1C(Cl)N(c2ccccc2)C1c1c[nH]c2ccccc12 (stereo not given)", "CEM cells HIV-1 protection, formazan growth assay", "< 3.50"],
  ["CCCCNC(=S)Nc1nc(C(=O)NNC(=S)NC2CCCCC2)cs1", "CEM cells HIV-1 protection, formazan growth assay", "< 3.70"],
  ["CCOC(C)C(/C=N/NC(N)=S)=NNC(N)=S (stereo not given)", "CEM cells HIV-1 protection, formazan growth assay", "< 4.70"],
  ["COC(=O)C1(C(=O)OC)N=C(C)OC1/C=C/c1ccccc1 (stereo not given)", "CEM cells HIV-1 protection, formazan growth assay", "< 3.70"],
  ["Cc1c(CCC(C)C)oc2cc3oc(CCC(C)C)c(C)c3cc12", "CEM cells HIV-1 protection, formazan growth assay", "< 4.15"],
  ["CN(C)CCN1C(=O)N(CCN(C)C)c2c3cc(O)ccc3nc3c([N+](=O)[O-])ccc1c23", "CEM cells HIV-1 protection, formazan growth assay", "< 3.70"],
  ["CC(C)NC(=O)OCc1c(COC(=O)NC(C)C)n(C)c2c1ccc1sccc12", "CEM cells HIV-1 protection, formazan growth assay", "< 3.70"],
  ["CSCCC(NC(=O)C(CC(C)C)NC(=O)CNC(=O)OC(C)(C)C)C(=O)N(C)C (stereo not drawn) (Boc-Gly-Leu-Met-NMe2; configuration not given here)", "CEM cells HIV-1 protection, formazan growth assay", "< 3.70"],
  ["O=C1CCC2(c3ccc(Cl)cc3)SCCN12 (stereo not given)", "CEM cells HIV-1 protection, formazan growth assay", "< 3.70"],
  ["CCOC(=O)C(=O)Nc1c(CC)cccc1C(C)C", "CEM cells HIV-1 protection, formazan growth assay", "< 3.45"]
]}

Attribution: PubChem BioAssay AID179
